Assay: gradient 5% acetonitrile 3 min, to 50% in 2 min, to 85% in 15 min, held 3 min, 100 µL/min
Conditions: column: Zorbax Extend-C18 2.1 x 50 mm; eluents: water / acetonitrile, 0.1% formic acid
Value Type: RP-LC retention time (s)

O=C(NCC1(c2cccs2)CC1)c1cnccn1 = 736
CN1CCCCCCN(C(=O)Cn2c(=O)oc3ccccc32)[C@H]2CCC[C@H]2C1=O = 830
COCCCNC(=O)Cn1nc(-n2c(C)ccc2C)c2c(C)cc(C)nc21 = 874
Cc1nnc2c(=O)n(CC(=O)NC(C)c3ccccc3)c3cccnc3n12 (centres undefined) = 988
CCOC(=O)c1[nH]c(C)c(C(=O)N2CCC(CC(=O)N3CCN(C4CCCCC4)CC3)CC2)c1C = 598
Cc1cc(N2CCC(NC(=O)Nc3ccc(Cl)cc3F)C2=O)ccc1F (centres undefined) = 923
O=C(c1ccc(OCCCc2cnc[nH]2)cc1)C1CC1 = 680
CC(C)NC(=O)N1CCCC(c2cccc(C(=O)NCc3cccc(C(F)(F)F)c3)c2)C1 (centres undefined) = 958
CCOC(=O)c1ccc(NC(=O)Cn2c(N3CCOCC3)nc(CC)cc2=O)cc1 = 794

###

Assay: gradient 5% acetonitrile 3 min, to 50% in 2 min, to 85% in 15 min, held 3 min, 100 µL/min
Conditions: column: Zorbax Extend-C18 2.1 x 50 mm; eluents: water / acetonitrile, 0.1% formic acid
Value Type: RP-LC retention time (s)

Reference set (4 entries):
O=C(CSc1nnc(-c2ccc(Br)cc2)o1)OCc1ccccc1 = 1150
CCc1cccc(-n2nnc(C(=O)N3CCC4(CC3)OCCO4)c2-c2ccncc2)c1 = 744
CCc1nn2c(CNS(=O)(=O)c3ccc(Cl)cc3)c(-c3ccccc3)nc2s1 = 1000
CCN1C(=O)c2cccnc2Sc2cc(CNC(=O)c3ccccc3OC)ccc21 = 772

[I] CCOc1ccc(-n2cc(C(=O)OCC(=O)OC(C)(C)C)c3ccccc3c2=O)cc1
[II] CN(C)C(=O)c1ccc2c(c1)N(CC(=O)Nc1ccccc1Cl)C(=O)CS2
Exercise: Larger number for RP-LC retention time: I , or II ? Selection: enter the item's label.
Solution: I
(I: 1220 s, II: 705 s)

[a] O=C(Nc1ccccc1F)N1CCCC1c1nc(-c2cccc(Cl)c2)no1 (stereo not drawn)
[b] O=C(NCc1ccccc1)C1CCN(S(=O)(=O)c2ccc3[nH]c(=O)ccc3c2)CC1
Exercise: Hi! Which is lower in terms of RP-LC retention time, the first one a or the second one b ? Field: selected label. Fill in the label of the entry you choose.
Solution: b
(b: 683 s, a: 1060 s)

###

Experiment: gradient 5% acetonitrile 3 min, to 50% in 2 min, to 85% in 15 min, held 3 min, 100 µL/min
Conditions: column: Zorbax Extend-C18 2.1 x 50 mm; eluents: water / acetonitrile, 0.1% formic acid
Value Type: RP-LC retention time (s)

CC(CC(=O)Nc1ccccc1Cl)S(=O)(=O)c1ccc2c(c1)NC(=O)CCS2 (stereo unspecified) = 761
O=C(c1cn(-c2cc(N3CCSCC3)ncn2)cn1)N1CC=C(c2ccccc2)CC1 = 992
CC1=C(c2ccccc2)S(=O)(=O)N=C1N1CCCN(C(=O)NC(C)(C)C)CC1 = 790
O=C(CN1CCN(Cc2ccccc2F)C1=O)NCCc1cccs1 = 778
Cc1ncc2c(n1)C[C@@H]1CC[C@H]2N1C(=O)NCc1ccccc1 = 642
O=C(c1cccc(N2CCNC(c3ccccc3)C2)n1)N1CCSCC1 (stereo unspecified) = 614
CC(NC(=O)c1ccc(C(F)(F)F)cc1)C(=O)Nc1nc2ccccc2[nH]1 (stereo unspecified) = 641
O=C(NCCc1ccccc1)C1CCN(C(=O)C2Sc3ccccc3NC2=O)CC1 (stereo unspecified) = 740
CCC(C)C(NC(=O)Cc1ccc(OC)c(Cl)c1)C(=O)Nc1nc2ccccc2[nH]1 (stereo unspecified) = 762
CCOC(=O)Cn1nc(-c2nc(-c3ccc(Cl)cc3)no2)ccc1=O = 1040
Cc1ccc(C(=O)NCCc2ncc(C)n2C2CCC2)s1 = 564
CCC(=O)N1CCC(N2C(=O)C(O)C23CCCCC3)CC1 (stereo unspecified) = 590
Cc1cc(C)c2c(N(C)C)nc(C(=O)NCCN(C)C3CCCCC3)nc2n1 = 562
COc1ccccc1NC(=O)N1CCc2cn(C)c3cccc(c23)C1 = 944
O=C(Nc1ccc2c(c1)OCO2)N(Cc1ccccn1)Cc1ccco1 = 628
Cc1noc(-c2ccnc(-n3ncc(C(=O)N4CCCCC4)c3C)c2)n1 = 841
O=C(NCc1csc(-c2ccccc2)n1)[C@H]1CCCN1C(=O)c1ccc(Br)cc1 = 866
CCCn1c(=O)sc2cc(S(=O)(=O)N3CCC(C(=O)NC(C)CC)CC3)ccc21 (stereo unspecified) = 853
CCCc1cc(C2CCCN2C(=O)c2ccc(OC)c(OC)c2)no1 (stereo unspecified) = 793
O=C1COc2ccc(-c3csc(NC(=O)c4ccco4)n3)cc2N1 = 741
COCCCNC(=O)C1c2ccccc2C(=O)N1CCCc1ccccc1 (stereo unspecified) = 761

###

Assay: gradient 5% acetonitrile 3 min, to 50% in 2 min, to 85% in 15 min, held 3 min, 100 µL/min
Details: column: Zorbax Extend-C18 2.1 x 50 mm; eluents: water / acetonitrile, 0.1% formic acid
Value Type: RP-LC retention time (s)

CCOc1ccc(-n2ccnc(NC(=O)Nc3ccccc3)c2=O)cc1 = 981
Cc1noc(CNC(=O)C2CCN(C(=O)CSc3ccc(F)cc3)CC2)n1 = 645
Cc1nc(NC(=O)c2cc(C3CC3)n(C3CCS(=O)(=O)C3)n2)sc1C (configuration not stated) = 764
O=C(COc1ccccc1)N1CCC(CNS(=O)(=O)Cc2cccc(F)c2)CC1 = 782
CCC(C)NC(=O)Cn1c(=O)cc(-c2nc(C(C)C)no2)c2ccccc21 (configuration not stated) = 707
CCOC(=O)c1c(N)ssc1=S = 786

[1] Cc1cc(N2CCN(C(=O)c3ccc(N(C)C)cc3)CC2)nc2nncn12
[2] CCc1noc(-c2cc(=O)n(CC(=O)NCc3ccccc3F)c3ccccc23)n1
Exercise: Hey, which is lower on measured RP-LC retention time, 1 or 2 ? Please indicate the selected item by its label.
Solution: 1
(1: 575 s, 2: 890 s)

[A] Cc1ccc(N2CCN(Cc3nc4nc(C)cc(N5CCOCC5)n4n3)CC2)cc1
[B] COc1cc(CNC(=O)C2CCCN(c3nccnc3Oc3ccccc3)C2)cc(OC)c1 (configuration not stated)
Exercise: Could you please tell me which of these two has the higher RP-LC retention time: A or B ? In your reply, give the label of the chosen option.
Solution: B

###

Test: gradient 5% acetonitrile 3 min, to 50% in 2 min, to 85% in 15 min, held 3 min, 100 µL/min
Settings: column: Zorbax Extend-C18 2.1 x 50 mm; eluents: water / acetonitrile, 0.1% formic acid
Value Type: RP-LC retention time (s)

[a] COc1ccccc1CC(=O)Nc1ccc(-c2nc(Cn3cccn3)c(C)o2)cc1
[b] CCOC(=O)c1ccc(NC(=O)N2CC=C(c3cn(CC)c4ncccc34)CC2)cc1
Exercise: Please indicate which item has the smaller measured RP-LC retention time: a versus b Give the label under which the chosen entry appears.
Solution: b
(b: 606 s, a: 869 s)

[A] Cn1cc(-c2cc3n(n2)CCCN3C(=O)CCC(=O)NCCN2CCOCC2)c2ccccc21
[B] O=C(OCn1nnc2ccccc2c1=O)c1ccc(S(=O)(=O)N2CCCCC2)cc1
Exercise: Which entry has a larger number for RP-LC retention time, A or B ? Provide the label of your selected option as the answer.
Solution: B

[I] CC1(C)CC2CC(C)(CN2c2nc(-c3ccccc3)nc3ccccc23)C1 (stereo not given)
[II] Cc1ccsc1C(=O)NCC1Cn2cccc2C(=O)N1C (stereo not given)
Exercise: Record comparison, field RP-LC retention time: mark the lower of I and II . Please respond with the label that marks your chosen entry.
Solution: II

###

Assay: gradient 5% acetonitrile 3 min, to 50% in 2 min, to 85% in 15 min, held 3 min, 100 µL/min
Details: column: Zorbax Extend-C18 2.1 x 50 mm; eluents: water / acetonitrile, 0.1% formic acid
Value Type: RP-LC retention time (s)

Cc1ccc(OCc2nnc(SCC(=O)Nc3nc(-c4ccccc4)cs3)o2)cc1 = 875

[A] CCn1cnc2ccc(-c3noc(Cc4ccc(F)cc4)n3)cc21
[B] CCOc1ccccc1-c1noc(Cn2c(=O)n(Cc3cccc(OC)c3)c(=O)c3sccc32)n1
Exercise: Dear colleague, could you let me know whether A or B has the lower recorded RP-LC retention time? Thanks. Write down the label attached to your selection.
Solution: A

[1] NS(=O)(=O)c1ccc(NC(=O)C2Cc3ccccc3C(=O)O2)cc1 (centres undefined)
[2] Cc1nc(-c2cn(C)c3ncccc23)sc1C(=O)Nc1ccc(Cl)cc1
Exercise: Which value of RP-LC retention time is smaller, the one for 1 or the one for 2 ? Answer by stating the label of the chosen item.
Solution: 1
(1: 684 s, 2: 1060 s)

meta.source: the METLIN SMRT retention time set (Domingo-Almenara et al. 2019)
